# protocol: MTT cytotoxicity assay, DU-145
# Format: cell-based
# experimental_conditions: human, DU-145 cells, mean ± SE, triplicate, read-out: CC50 against DU-145

>  <substance_smiles>
O=C(C=Cc1ccccc1)c1ccc(NS(=O)(=O)c2ccc3oc(=O)ccc3c2)cc1

>  <CC50 at 48 h [µM]>
71.4

$$$$
>  <substance_smiles>
O=C(C=Cc1ccc(F)cc1)c1ccc(NS(=O)(=O)c2ccc3oc(=O)ccc3c2)cc1

>  <CC50 at 48 h [µM]>
47.3

$$$$
>  <substance_smiles>
O=C(C=Cc1ccc(Cl)cc1)c1ccc(NS(=O)(=O)c2ccc3oc(=O)ccc3c2)cc1

>  <CC50 at 48 h [µM]>
36.6

$$$$

###

# measurement_target: hGSTP1-1 (Homo sapiens)
# Construct: made in house; host or cells: E. coli
# protocol: hGSTP1-1 enzyme activity/inhibition assay (CDNB and GSH substrates, 340 nm)
# Type: biochemical
# experimental_conditions: GSH as variable substrate; read-out: inhibition constant Ki

>  <compound>
O=C(C=Cc1ccc(Cl)cc1)c1ccc(NS(=O)(=O)c2ccc3oc(=O)ccc3c2)cc1 [Compound 5g]

>  <measurement_target>
hGSTP1-1 (Homo sapiens)

>  <units>
µM

>  <Ki>
3.82

$$$$

###

# measurement_target: hGSTP1-1 (Homo sapiens)
# Construct: made in house; host or cells: E. coli
# protocol: hGSTP1-1 enzyme activity/inhibition assay (CDNB and GSH substrates, 340 nm)
# Type: biochemical
# experimental_conditions: concentration-response inhibition; mean ± SE, triplicate; read-out: IC50 towards hGSTP1-1
pIC50: −log10 of the molar value.
Form field: pIC50 (one value per entry).

>  <compound>
O=C(C=Cc1ccc(Cl)cc1)c1ccc(NS(=O)(=O)c2ccc3oc(=O)ccc3c2)cc1 [Compound 5g]

>  <measurement_target>
hGSTP1-1 (Homo sapiens)

>  <pIC50>
4.91

$$$$
>  <compound>
O=C(C=Cc1ccc(F)cc1)c1ccc(NS(=O)(=O)c2ccc3oc(=O)ccc3c2)cc1 [Compound 5f]

>  <measurement_target>
hGSTP1-1 (Homo sapiens)

>  <pIC50>
4.90

$$$$
>  <compound>
O=C(C=Cc1ccccc1)c1ccc(NS(=O)(=O)c2ccc3oc(=O)ccc3c2)cc1 [Compound 5a]

>  <measurement_target>
hGSTP1-1 (Homo sapiens)

>  <pIC50>
4.79

$$$$

###

# protocol: MTT cytotoxicity assay, PC3
# Format: cell-based
# experimental_conditions: human, PC3 cells, mean ± SE, triplicate, read-out: CC50 against PC3
Form field: CC50 at 48 h (one value per entry).

>  <substance_smiles>
O=C(C=Cc1ccc(Cl)cc1)c1ccc(NS(=O)(=O)c2ccc3oc(=O)ccc3c2)cc1

>  <CC50 at 48 h (µM)>
11.9

$$$$
>  <substance_smiles>
O=C(C=Cc1ccccc1)c1ccc(NS(=O)(=O)c2ccc3oc(=O)ccc3c2)cc1

>  <CC50 at 48 h (µM)>
25.3

$$$$
>  <substance_smiles>
O=C(C=Cc1ccc(F)cc1)c1ccc(NS(=O)(=O)c2ccc3oc(=O)ccc3c2)cc1

>  <CC50 at 48 h (µM)>
14.7

$$$$

###

# measurement_target: hGSTP1-1 (Homo sapiens, UniProt P09211)
# Construct: made in house; host or cells: E. coli
# Sequence (P09211 whole entry): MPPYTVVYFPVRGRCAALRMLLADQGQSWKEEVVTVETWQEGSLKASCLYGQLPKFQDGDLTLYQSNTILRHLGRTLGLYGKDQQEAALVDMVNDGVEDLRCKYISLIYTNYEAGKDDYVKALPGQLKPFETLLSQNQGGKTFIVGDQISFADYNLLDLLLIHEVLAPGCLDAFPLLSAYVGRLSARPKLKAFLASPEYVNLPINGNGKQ
# protocol: hGSTP1-1 enzyme activity/inhibition assay (CDNB and GSH substrates, 340 nm)
# Assay type: biochemical
# experimental_conditions: pH 6.5, 10 μM compound; 25°C, pH 6.5; mean ± SE, triplicate
measured_property: inhibition at 10 µM (%)

>  <substance_smiles>
Cc1ccc(C=CC(=O)c2ccc(NS(=O)(=O)c3ccc4oc(=O)ccc4c3)cc2)cc1

>  <measurement_target>
hGSTP1-1 (Homo sapiens, UniProt P09211)

>  <units>
%

>  <qualifier_symbol>
=

>  <assay_value>
62.8

$$$$
>  <substance_smiles>
O=C(C=Cc1ccccc1)c1ccc(NS(=O)(=O)c2ccc3oc(=O)ccc3c2)cc1

>  <measurement_target>
hGSTP1-1 (Homo sapiens, UniProt P09211)

>  <units>
%

>  <qualifier_symbol>
>

>  <assay_value>
85

$$$$
>  <substance_smiles>
O=C(C=Cc1ccc(F)cc1)c1ccc(NS(=O)(=O)c2ccc3oc(=O)ccc3c2)cc1

>  <measurement_target>
hGSTP1-1 (Homo sapiens, UniProt P09211)

>  <units>
%

>  <qualifier_symbol>
>

>  <assay_value>
85

$$$$
>  <substance_smiles>
O=C(C=Cc1ccc([N+](=O)[O-])cc1)c1ccc(NS(=O)(=O)c2ccc3oc(=O)ccc3c2)cc1

>  <measurement_target>
hGSTP1-1 (Homo sapiens, UniProt P09211)

>  <units>
%

>  <qualifier_symbol>
=

>  <assay_value>
45.4

$$$$
>  <substance_smiles>
COc1ccc(C=CC(=O)c2ccc(NS(=O)(=O)c3ccc4oc(=O)ccc4c3)cc2)cc1

>  <measurement_target>
hGSTP1-1 (Homo sapiens, UniProt P09211)

>  <units>
%

>  <qualifier_symbol>
=

>  <assay_value>
67

$$$$
>  <substance_smiles>
O=C(C=Cc1ccc(Cl)cc1)c1ccc(NS(=O)(=O)c2ccc3oc(=O)ccc3c2)cc1

>  <measurement_target>
hGSTP1-1 (Homo sapiens, UniProt P09211)

>  <units>
%

>  <qualifier_symbol>
>

>  <assay_value>
85

$$$$
>  <substance_smiles>
COc1ccc(C=CC(=O)c2ccc(NS(=O)(=O)c3ccc4oc(=O)ccc4c3)cc2)c(OC)c1

>  <measurement_target>
hGSTP1-1 (Homo sapiens, UniProt P09211)

>  <units>
%

>  <qualifier_symbol>
=

>  <assay_value>
59.3

$$$$
>  <substance_smiles>
O=C(C=Cc1ccc(Br)cc1)c1ccc(NS(=O)(=O)c2ccc3oc(=O)ccc3c2)cc1

>  <measurement_target>
hGSTP1-1 (Homo sapiens, UniProt P09211)

>  <units>
%

>  <qualifier_symbol>
=

>  <assay_value>
71.1

$$$$
